Assay: in vitro
Conditions: dog, MDCK-MDR1, pH 7.4
observable: Papp at 2 h, 75 µM
Remember to follow the number with its unit.

Sure, the documented Papp at 2 h, 75 µM for CN(Cc1cnc2nc(N)nc(N)c2n1)c1ccc(C(=O)N[C@@H](CCC(=O)O)C(=O)O)cc1 [MTX, reference compound] is 0.091 ×10⁻⁶ cm/s

----------
Assay: Transport across MDCKII-MDR1 cell monolayer
Conditions: dog, MDCK-MDR1, pH 7.4
# reported Papp at 2 h, 75 µM; entries follow
Give the quantity in ×10⁻⁶ cm/s, number only.

molecule | Papp at 2 h, 75 µM (×10⁻⁶ cm/s)
CCCN(CCC)C(=O)Cc1c(-c2ccc(Cl)cc2)nc2c(NC(=O)CNC(=O)C(CCC(=O)O)NC(=O)c3ccc(N(C)Cc4cnc5nc(N)nc(N)c5n4)cc3)cccn12 (centres unmarked) | 3.65

Sure, the documented Papp at 2 h, 75 µM for CCCN(CCC)C(=O)Cc1c(-c2ccc(Cl)cc2)nc2c(NC(=O)CNC(=O)CCC(NC(=O)c3ccc(N(C)Cc4cnc5nc(N)nc(N)c5n4)cc3)C(=O)O)cccn12 (centres unmarked) is 3.32
